What PBM E-score was measured for each of the following?
Target: Nrg2 (UniProt P38082)
Sequence: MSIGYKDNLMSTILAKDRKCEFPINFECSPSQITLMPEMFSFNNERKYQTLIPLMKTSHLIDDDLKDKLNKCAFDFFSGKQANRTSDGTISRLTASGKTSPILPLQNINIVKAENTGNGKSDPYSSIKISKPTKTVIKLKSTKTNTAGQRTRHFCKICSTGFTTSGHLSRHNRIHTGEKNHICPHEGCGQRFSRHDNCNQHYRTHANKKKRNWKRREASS
Assay: PBM E-score (8-mer binding enrichment) (E-score (-0.5 to 0.5)); higher = stronger / more preferred TF binding
Settings: protein concentration: 100 nM; construct: GST-full length
Over roughly 33,000 sequences, “E-score (-0.5 to 0.5)” has its median near -8e-05; the highest 2% begin near 0.23. What follows is part of a selection rich in the highest values, with near analogues and random picks from the rest.
Field format: numeric only.

Given item CGCTACTC , the value recorded as its PBM E-score is -0.0612

response.value for CCCACCCC (field: PBM E-score) = 0.177

Memo: CTTTGTTC , reported PBM E-score: 0.0376

CCCACCCG yielded PBM E-score of 0.231

Value of measured PBM E-score for the entry CAATACAA : 0.275

The sequence listed as GATACCCC shows PBM E-score equal to 0.0656

Reported PBM E-score for AACTACTG was 0.0512

Kindly note the recorded PBM E-score for AACTAATA , which is 0.354

# sequence AACTACTC ; its PBM E-score = 0.184

Record summary for CCGCGCCG : reported PBM E-score = -0.0754

Measured PBM E-score, AGCGGCCT : -0.275

Input AACTACTA . Output PBM E-score: 0.296

For reference, reported PBM E-score for CGGCGCCA stands at 0.0132

The sequence listed as CTATTTCC shows PBM E-score equal to 0.255

# PBM E-score of AGCTACTA = 0.0519

sequence CCGCGGGA , PBM E-score observed: 0.284

response.value for CGTATTTA (field: PBM E-score) = 0.248

Briefly, PBM E-score measured for GGTATTTA : 0.0832

// recorded PBM E-score for CCGCGCGG : 0.368

For this sequence ( CCCCTCCC ), measured PBM E-score is -0.102
